Test system: Plasmodium falciparum
method summary: GSK_TCMDC: Inhibition of Plasmodium falciparum Dd2 in whole red blood cells, using parasite LDH activity as an index of growth. Test compounds present at 2uM
Format: functional
# Inhibition annotations
readout type: Inhibition (%)

Cc1noc(C)c1CN1CCCN(c2ccc3c(c2)CCN(Cc2ccc(-c4ncc[nH]4)cc2)CC3)CC1
39
COc1ccc(-c2ccc(NC(=O)c3ccc(C#N)cc3)cc2)cc1CNC(C)C.O=C(O)C(F)(F)F
38
OC(CNCc1cccc(Oc2ccc(Cl)cc2)c1)c1cc(C(F)(F)F)cc(C(F)(F)F)c1 (stereo unspecified)
100
O=[N+]([O-])c1ccc2c(c1)c1ccccc1n2Cc1ccccc1O
84
O=C(Nc1ccc(Oc2cccnc2)cc1)C1CCN(Cc2cc(Cl)ccc2O)CC1
1
CC(=O)Nc1nc(C(=O)Nc2ccc(-c3cccc(-c4nc5cccc(C)c5[nH]4)c3)cc2)cs1
73
Cc1cc(N(CCO)CCCN2CCCCC2)nc(Nc2ccc(Cl)cc2)n1.Cl
18
COc1ccccc1CCNc1nc(C)cc(N[C@@H](Cc2ccccc2)C(=O)NCCc2ccccc2)n1.O=C(O)C(F)(F)F
89
CC(C)Cn1ncc2c3c(N)nc(N)nc3ccc21
73
CCN(CC)Cc1cc(Nc2c3ccc(Cl)cc3nc3cccc(OC)c23)ccc1O.Cl
98
Cl.N=C(N)Nc1ccc(OCCCCCOc2ccc(NC(=N)N)c(Cl)c2)cc1Cl
92
O=C(Nc1cc(Cl)c(Cl)cc1NC(=O)c1cccc(-c2ccccc2)c1O)c1cccc(-c2ccccc2)c1O
100
CC1CNC(c2cccc(NC(=O)Nc3cccc(C4=NC(C)CN4)c3)c2)=N1.Cl (stereo unspecified)
98
O=C(O)C(F)(F)F.O=c1ccc2ccc(F)c3c2n1CC3CN1CCC(NCc2cccc(-c3cccs3)c2)CC1 (stereo unspecified)
75
O=C(Nc1ccc2[nH]c(-c3ccccc3)nc2c1)c1cc(-c2ccc3c(c2)OCCO3)n[nH]1.O=C(O)C(F)(F)F
75
Cc1ccoc1C(=O)Nc1cccc(-c2cccc(-c3nc4ccccc4[nH]3)c2)c1
20
O=C(Nc1ccc(-c2ccc(-c3nc4ccccc4[nH]3)s2)cc1)c1ccncc1
95
O=C(NCCN1Cc2ccccc2C1=O)c1ccc(Oc2ccc(C(=O)NCCN3Cc4ccccc4C3=O)cc2)cc1
95
CC[C@H](C)CNC(=O)c1cncc(-c2ccc(CNCCCc3ccccc3)cc2)c1.O=C(O)C(F)(F)F
99
Cc1ccc2c(=O)cc(CCc3cccc(F)c3F)n(CC(=O)N(Cc3ccc(-c4ccc(C(F)(F)F)cc4)cc3)C3CCN(C)CC3)c2n1.O=C(O)C(O)C(O)C(=O)O
76
Cc1cccc(CNc2nc(C)cc(N[C@@H](CC(C)C)C(=O)NCc3cccc(F)c3)n2)c1.O=C(O)C(F)(F)F
32
O=c1cc(NCCC(CNCc2ccc(Br)o2)NCc2cc(Br)cc(Br)c2)[nH]c2ccccc12 (stereo unspecified)
90
Br.Oc1ccc2nc(N3CCNCC3)nc(NCCCc3ccccc3)c2c1
0
CC(C)N1CCC(NCc2ccc(-c3ccc(Cl)cc3)cc2)CC1
48
Nc1cccc(CNCc2cccc(-c3csc(-c4nc5ccccc5[nH]4)c3)c2)c1.O=C(O)C(F)(F)F
63
O=C(C1CCCC1)N1CCOC(CCN2CCC(c3ccccc3)CC2)(c2ccc(Cl)c(Cl)c2)C1 (stereo unspecified)
77
CN(C)c1ccc(-c2csc(C(=O)NCC3CCN(Cc4cccc(C(F)(F)F)c4)C3)c2)cc1.O=C(O)C(F)(F)F (stereo unspecified)
58
CC(C)(C)c1ccc(NC(=O)c2cccc(CN3CCN(Cc4cccc(O)c4)CC3)c2)cc1.O=C(O)C(F)(F)F
3
c1ccc(CNc2nc(NCCc3c[nH]cn3)nc(N3CCCC4CCCCC43)n2)cc1 (stereo unspecified)
100
C[C@H](NC(=O)C1CCCC1)C(=O)Nc1ccc(-c2ccc(-c3nc4cc(C(F)(F)F)ccc4[nH]3)cc2)cc1
70
CNCCNCc1cccc(-c2ccc(-c3nc4cccc(C)c4[nH]3)cc2)c1.O=C(O)C(F)(F)F
21
Cl.O=C(Nc1ccc2c(c1)CCN(C1CCC1)CC2)c1ccc(-c2cn3ccccc3n2)cc1
42
COc1ccc(NC(=O)NC2CCN(CCCCCNC(=O)/C=C/c3ccc(Cl)c(Cl)c3)CC2)cc1
1
COc1ccc2nccc(N3CCC(SCCNCc4ccc5c(n4)NC(=O)CS5)C3)c2n1.Cl (stereo unspecified)
100
CCCc1cn2c3c(cc(C(=O)N[C@@H](Cc4ccccc4)[C@H](O)CNC4CCCCC4)cc13)N(C)S(=O)(=O)CC2.O=CO
98
CS(=O)(=O)c1ccc2nc(NC(=O)c3csnn3)sc2c1
95
